# settings: in isopropanol, 308.15 K
experimentalReadout: solubility (mole fraction)
Give the value as a plain number.

*Q* What does the data say about its solubility (mole fraction)? Entry: CC[C@H]1OC(=O)[C@H](C)[C@@H](O[C@H]2C[C@@](C)(OC)[C@@H](O)[C@H](C)O2)[C@H](C)[C@@H](O[C@@H]2O[C@H](C)C[C@H](N(C)C)[C@H]2O)[C@](C)(O)C[C@@H](C)CN(C)[C@H](C)[C@@H](O)[C@]1(C)O.O
*A* 0.0459

---

# settings: in n-butanol, 298.15 K
experimentalReadout: solubility (mole fraction)
Give the value as a plain number.

*Q* What does the data say about its solubility (mole fraction)? Entry: CC[C@H]1OC(=O)[C@H](C)[C@@H](O[C@H]2C[C@@](C)(OC)[C@@H](O)[C@H](C)O2)[C@H](C)[C@@H](O[C@@H]2O[C@H](C)C[C@H](N(C)C)[C@H]2O)[C@](C)(O)C[C@@H](C)CN(C)[C@H](C)[C@@H](O)[C@]1(C)O.O
*A* 0.0301

---

# settings: in n-butanol, 313.15 K
experimentalReadout: solubility (mole fraction)
Give the value as a plain number.

*Q* What does the data say about its solubility (mole fraction)? Entry: CC[C@H]1OC(=O)[C@H](C)[C@@H](O[C@H]2C[C@@](C)(OC)[C@@H](O)[C@H](C)O2)[C@H](C)[C@@H](O[C@@H]2O[C@H](C)C[C@H](N(C)C)[C@H]2O)[C@](C)(O)C[C@@H](C)CN(C)[C@H](C)[C@@H](O)[C@]1(C)O.O
*A* 0.0386

---

# settings: in n-butanol, 318.15 K
experimentalReadout: solubility (mole fraction)
Give the value as a plain number.

*Q* What does the data say about its solubility (mole fraction)? Entry: CC[C@H]1OC(=O)[C@H](C)[C@@H](O[C@H]2C[C@@](C)(OC)[C@@H](O)[C@H](C)O2)[C@H](C)[C@@H](O[C@@H]2O[C@H](C)C[C@H](N(C)C)[C@H]2O)[C@](C)(O)C[C@@H](C)CN(C)[C@H](C)[C@@H](O)[C@]1(C)O.O
*A* 0.0422

---

# settings: in ethanol, 313.15 K
experimentalReadout: solubility (mole fraction)
Give the value as a plain number.

*Q* What does the data say about its solubility (mole fraction)? Entry: CC[C@H]1OC(=O)[C@H](C)[C@@H](O[C@H]2C[C@@](C)(OC)[C@@H](O)[C@H](C)O2)[C@H](C)[C@@H](O[C@@H]2O[C@H](C)C[C@H](N(C)C)[C@H]2O)[C@](C)(O)C[C@@H](C)CN(C)[C@H](C)[C@@H](O)[C@]1(C)O.O
*A* 0.0538

---

# settings: in n-butanol, 323.15 K
experimentalReadout: solubility (mole fraction)
Give the value as a plain number.

*Q* What does the data say about its solubility (mole fraction)? Entry: CC[C@H]1OC(=O)[C@H](C)[C@@H](O[C@H]2C[C@@](C)(OC)[C@@H](O)[C@H](C)O2)[C@H](C)[C@@H](O[C@@H]2O[C@H](C)C[C@H](N(C)C)[C@H]2O)[C@](C)(O)C[C@@H](C)CN(C)[C@H](C)[C@@H](O)[C@]1(C)O.O
*A* 0.0466

---

# settings: in acetone, 293.15 K
experimentalReadout: solubility (mole fraction)
Give the value as a plain number.

*Q* What does the data say about its solubility (mole fraction)? Entry: CC[C@H]1OC(=O)[C@H](C)[C@@H](O[C@H]2C[C@@](C)(OC)[C@@H](O)[C@H](C)O2)[C@H](C)[C@@H](O[C@@H]2O[C@H](C)C[C@H](N(C)C)[C@H]2O)[C@](C)(O)C[C@@H](C)CN(C)[C@H](C)[C@@H](O)[C@]1(C)O.O
*A* 0.0386
